measurement-description: phenotypic screen on post-Golgi transport, primary screen (AID 739);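 further: yeast cells grown in 1536-well plates; yeast grown about 18 h at 30C before absorbance read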
condition-parameters: post-Golgi transport phenotypic cell assay; at 10 µM; active compounds read high
In all, about 98,000 compounds went through this assay and about 880 (0.9%) were called active. The full list was thinned out, with actives kept by preference.
inhibition overview
Just the number please, in %, no unit attached.

What value of inhibition has been recorded for this entry: Cc1ccc(S(=O)(=O)NCC(=O)N(CC(=O)NC(C)(C)C)Cc2cccs2)cc1
-2.77

----------
measurement-description: phenotypic screen on post-Golgi transport, primary screen (AID 739);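 further: yeast cells grown in 1536-well plates; yeast grown about 18 h at 30C before absorbance read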
condition-parameters: post-Golgi transport phenotypic cell assay; at 10 µM; active compounds read high
About 880 (0.9%) of roughly 98,000 compounds were called active. This is one part of a sample in which actives are shown more often than they occur.
property-label: inhibition (%)
Just the number please, in %, no unit attached.

Solved entries (count: 6):
compound: CCn1cc(C(=O)N2CCN(Cc3ccc4c(c3)OCO4)CC2)c2cc(OC)c(OC)cc2c1=O
unit-text: %
inhibition: -1.13
--
compound: c1ccc2c(CSCc3nc4ccccc4[nH]3)cccc2c1
unit-text: %
inhibition: 4.1
--
compound: Cc1ccc(C(=O)c2c(NC(=O)c3ccccc3)sc(C)c2C)cc1
unit-text: %
inhibition: 0
--
compound: COC(=O)c1ccc(Cc2ccccc2)o1
unit-text: %
inhibition: 8.24
--
compound: CC(C)CCNc1nc(N2CCCC2)c2c(c1C#N)CCN(C)C2
unit-text: %
inhibition: -1.14
--
compound: COC(=O)c1cc(NC(=O)C2C3C=CC(C3)C2C(=O)O)cc(C(=O)OC)c1 (configuration not stated)
unit-text: %
inhibition: 2.17

What value of inhibition has been recorded for this entry: COc1ccc2c(Cl)c(C(=O)NCc3ccco3)sc2c1
-10.7

What value of inhibition has been recorded for this entry: Cc1cc2cc3c(cc2nc1SCC(=O)Nc1c(C)cccc1C)CCC3
-0.36

What value of inhibition has been recorded for this entry: CC(C)c1nc(N2CCOCC2)c(C#N)c2c1COC(C)(C)C2
-8.94

What value of inhibition has been recorded for this entry: CCCc1cc(=O)[nH]c(SCC(=O)c2cc(C)n(CCC)c2C)n1
-4.22

What value of inhibition has been recorded for this entry: CS(=O)(=O)N(CC(=O)N1CCN(Cc2ccc3c(c2)OCO3)CC1)c1ccc2c(c1)OCO2
6.95

What value of inhibition has been recorded for this entry: N#Cc1nc(Cc2ccccc2)oc1NCCc1ccccc1
18.8

What value of inhibition has been recorded for this entry: CCc1c(-c2ccccc2)nc(N)c(C#N)c1-c1cccs1
2.36

What value of inhibition has been recorded for this entry: CSc1ncccc1C(=O)OCC(=O)N1CCOCC1
31.5

----------
measurement-description: phenotypic screen on post-Golgi transport, primary screen (AID 739);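 further: yeast cells grown in 1536-well plates; yeast grown about 18 h at 30C before absorbance read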
condition-parameters: post-Golgi transport phenotypic cell assay; at 10 µM; active compounds read high
In all, about 98,000 compounds went through this assay and about 880 (0.9%) were called active. The list comes from a sample in which actives are over-represented; it also holds close analogues and randomly drawn compounds.
inhibition overview
Just the number please, in %, no unit attached.

Solved entries (count: 6):
compound: O=C(O)CCN=C1CCc2ccccc2N1
inhibition, %: 2.24

compound: CCCCOc1ccc(C(=O)NCc2ccncc2)cc1
inhibition, %: 2.23

compound: CCOc1cccc(C(=O)Nc2cccnc2)c1
inhibition, %: 31

compound: CC1=CC(C)(C)N(C(=O)CSc2nccn2C)c2cc(C)ccc21
inhibition, %: 5.13

compound: CCOc1ccc(-c2c(C)n([O-])c3c([n+]2=O)CCCC3)cc1
inhibition, %: 0.66

compound: CCc1ccc(NC(=O)CSc2nc3ccccc3c(=O)n2CCN2CCOCC2)cc1
inhibition, %: 0

What value of inhibition has been recorded for this entry: CN(Cc1nc2ccccc2c(=O)[nH]1)Cc1cc(=O)oc2ccc3ccccc3c12
39.3

What value of inhibition has been recorded for this entry: O=C(CSc1nnc(-c2ccccc2)o1)N1CCOCC1
8.7

What value of inhibition has been recorded for this entry: COc1ccc(Br)cc1S(=O)(=O)N1CCN=C1C
31.5

What value of inhibition has been recorded for this entry: Cc1cccc(NC(=O)CSc2nnc(-c3ccco3)o2)c1
-0.81

What value of inhibition has been recorded for this entry: CCOc1ccc(N(CC(=O)NC2CCCCCC2)S(=O)(=O)c2c(C)[nH]c(=O)[nH]c2=O)cc1
-2.87

What value of inhibition has been recorded for this entry: Cc1nc2ccc(NC(=O)C(F)(F)F)cc2o1
-13.7

What value of inhibition has been recorded for this entry: Cc1ccc(SCC(=O)Nc2ncc(C)s2)cc1
-7.09

What value of inhibition has been recorded for this entry: COc1cc(SC)ccc1C(=O)NCCOc1ccccc1Cl
4.48
